Target: MrgX2 (Homo sapiens, UniProt Q96LB1)
Construct: expressed in transfected cells; host or cells: HEK293T
Test: β-arrestin-2 recruitment to MrgX2, NanoBiT in HEK cells
Type: cell-based
Where no end group is shown, it is not given here.
Listed below: pEC50 values for each entry.
// pEC50 here means minus log10 of the molar concentration (mol/L)

Would you please look over these solved cases?
- substance: "FAKKWNKWALSR-NH2"
  pEC50: 6.00
- substance: "AFRKKWNKWALSR-NH2"
  pEC50: 6.05
- substance: "FRKKWNKWAFSR-NH2"
  pEC50: 6.13
- substance: "FRKKWNKAALSR-NH2"
  pEC50: 5.60
- substance: "FRKKWNAWALSR-NH2"
  pEC50: 6.26

For reference, reported pEC50 for FRKKWNKWALS-NH2 [FRKKWNKWALS -] stands at 5.81

For reference, reported pEC50 for FRKAWNKWALSR-NH2 stands at 6.18

For reference, reported pEC50 for ARLDVASEFRKKWNKWA [PAMP1-17] stands at 4.02

For reference, reported pEC50 for FRKKWNKWALAR-NH2 stands at 6.47

For reference, reported pEC50 for FRKKWNKFALSR-NH2 stands at 5.98

For reference, reported pEC50 for FRKKANKWALSR-NH2 stands at 5.70

====

Molecular target: ACKR3 (Homo sapiens)
Construct: expressed in transfected cells; host or cells: HEK293T
Assay: β-arrestin-2 recruitment to ACKR3, nanoluciferase complementation (NanoBiT) in HEK cells
Assay type: cell-based
Conditions: pEC50 ± S.E.M, β-arrestin-2 recruitment, ACKR3 (Supplementary Table 2), HEK cells, NanoBiT, three independent experiments
Where no end group is shown, it is not given here.
experimental.endpoint: EC50 (nM)
Enter your answer as a number in nM; do not include the unit.

Would you please look over these solved cases?
- substance: "FRKKWNKWALFR-NH2"
  target.under.test: "ACKR3 (Homo sapiens)"
  EC50, nM: 575
- substance: "FRKKWNKWALAR-NH2"
  target.under.test: "ACKR3 (Homo sapiens)"
  EC50, nM: 912
- substance: "AFRKKWNKWALSR-NH2"
  target.under.test: "ACKR3 (Homo sapiens)"
  EC50, nM: 2000
- substance: "FRKKWNKWGLSR-NH2"
  target.under.test: "ACKR3 (Homo sapiens)"
  EC50, nM: 1580

For reference, reported EC50 for FRKKWNKWALSK-NH2 stands at 1020

For reference, reported EC50 for FRKKWNKWALSA-NH2 stands at 11200

====

Target: MrgX2 (Homo sapiens)
Construct: expressed in transfected cells; host or cells: HEK293T
Experiment: β-arrestin-2 recruitment to MrgX2, NanoBiT in HEK cells
Format: cell-based
Conditions: EC50, β-arrestin-2 recruitment toward MrgX2, HEK cells, NanoBiT, normalised to full agonist, three independent experiments
Where no end group is shown, it is not given here.
experimental.endpoint: pEC50
// pEC50 here means minus log10 of the molar concentration (mol/L)

For reference, reported pEC50 for ARLDVASEFRKKWNKWALSR-NH2 [PAMP] stands at 5.21

====

Molecular target: ACKR3 (Homo sapiens, UniProt P25106)
Construct: expressed in transfected cells; host or cells: HEK293T
Sequence (P25106 whole entry): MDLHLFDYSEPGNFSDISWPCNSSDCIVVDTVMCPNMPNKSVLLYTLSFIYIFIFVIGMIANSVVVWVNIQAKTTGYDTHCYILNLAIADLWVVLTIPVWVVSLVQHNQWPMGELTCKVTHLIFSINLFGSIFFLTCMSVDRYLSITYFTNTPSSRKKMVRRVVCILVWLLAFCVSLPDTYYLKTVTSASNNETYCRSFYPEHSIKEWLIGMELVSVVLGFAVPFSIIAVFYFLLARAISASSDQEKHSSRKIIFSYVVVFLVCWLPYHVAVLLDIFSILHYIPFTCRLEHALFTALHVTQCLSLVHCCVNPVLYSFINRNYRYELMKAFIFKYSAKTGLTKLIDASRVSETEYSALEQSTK
Assay: β-arrestin-2 recruitment to ACKR3, nanoluciferase complementation (NanoBiT) in HEK cells
Type: cell-based
Where no end group is shown, it is not given here.
experimental.endpoint: EC50

For reference, reported EC50 for ARLDVASEFRKKWNKWALSR-NH2 [PAMP] stands at > 10 µM

====

Target: ACKR3 (Homo sapiens)
Construct: expressed in transfected cells; host or cells: HEK293T
Experiment: β-arrestin-2 recruitment to ACKR3, nanoluciferase complementation (NanoBiT) in HEK cells
Format: cell-based
Details: pEC50 ± S.E.M, β-arrestin-2 recruitment, ACKR3 (Supplementary Table 2), HEK cells, NanoBiT, three independent experiments
Where no end group is shown, it is not given here.
Please assign rule not met whenever EC50 is at or above 800 nM, and rule met whenever it is below.

Past entries and their recorded results:
- substance: "FRKKWNKFALSR-NH2"
  answer.label: "rule not met"
- substance: "FRKRWNKWALSR-NH2"
  answer.label: "rule met"
- substance: "FRKKWNAWALSR-NH2"
  answer.label: "rule not met"
- substance: "FRAKWNKWALSR-NH2"
  answer.label: "rule not met"

Moving on to another substance below.
# input In plain terms, does FRKKWAKWALSR-NH2 come in under 800 nM for EC50?
# output rule not met

====

Molecular target: MrgX2 (Homo sapiens, UniProt Q96LB1)
Construct: expressed in transfected cells; host or cells: HEK293T
Sequence (Q96LB1 1-330): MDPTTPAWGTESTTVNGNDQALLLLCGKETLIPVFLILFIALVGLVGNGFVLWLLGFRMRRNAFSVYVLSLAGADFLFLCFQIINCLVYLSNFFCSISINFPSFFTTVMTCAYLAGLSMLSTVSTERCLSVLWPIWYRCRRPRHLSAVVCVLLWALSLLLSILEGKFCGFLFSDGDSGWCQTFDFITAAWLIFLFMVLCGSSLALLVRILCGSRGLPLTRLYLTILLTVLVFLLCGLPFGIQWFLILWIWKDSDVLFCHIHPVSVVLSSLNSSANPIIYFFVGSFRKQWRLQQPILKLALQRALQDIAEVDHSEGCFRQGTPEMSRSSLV
Experiment: β-arrestin-2 recruitment to MrgX2, NanoBiT in HEK cells
Type: cell-based
Where no end group is shown, it is not given here.
Listed below: pEC50 values for each entry.
// pEC50 here means minus log10 of the molar concentration (mol/L)

Would you please look over these solved cases?
- substance: "FRKKFNKWALSR-NH2"
  pEC50: 6.23
- substance: "ARKKWNKWALSR-NH2"
  pEC50: 6.03
- substance: "YRKKWNKWALSR-NH2"
  pEC50: 6.04
- substance: "FRKKWQKWALSR-NH2"
  pEC50: 5.33

For reference, reported pEC50 for FRKKWNKWALSK-NH2 stands at 6.10

For reference, reported pEC50 for FRKKWAKWALSR-NH2 stands at 6.32

====

Listed below: EC50 values for each entry.
Biological target: MrgX2 (Homo sapiens, UniProt Q96LB1)
Construct: expressed in transfected cells; host or cells: HEK293T
Experiment: β-arrestin-2 recruitment to MrgX2, NanoBiT in HEK cells
Type: cell-based
Where no end group is shown, it is not given here.
Enter your answer as a number in µM; do not include the unit.

Would you please look over these solved cases?
- substance: "FRKKWNKWALSA-NH2"
  target.under.test: "MrgX2 (Homo sapiens, UniProt Q96LB1)"
  unit.text: "µM"
  test.result: 5.75
- substance: "FRKKYNKWALSR-NH2"
  target.under.test: "MrgX2 (Homo sapiens, UniProt Q96LB1)"
  unit.text: "µM"
  test.result: 2.45
- substance: "FRAKWNKWALSR-NH2"
  target.under.test: "MrgX2 (Homo sapiens, UniProt Q96LB1)"
  unit.text: "µM"
  test.result: 0.977
- substance: "FRKKWNKWAASR-NH2"
  target.under.test: "MrgX2 (Homo sapiens, UniProt Q96LB1)"
  unit.text: "µM"
  test.result: 1.48

Proceed to the following item.
Here FRKKWNRWALSR-NH2 was tested on MrgX2 (Homo sapiens, UniProt Q96LB1), and its EC50 came to 1.95

====

Biological target: ACKR3 (Homo sapiens, UniProt P25106)
Construct: expressed in transfected cells; host or cells: HEK293T
Experiment: β-arrestin-2 recruitment to ACKR3, nanoluciferase complementation (NanoBiT) in HEK cells
Type: cell-based
Conditions: pEC50 ± S.E.M, β-arrestin-2 recruitment, ACKR3 (Supplementary Table 2), HEK cells, NanoBiT, three independent experiments
Where no end group is shown, it is not given here.
Please assign Criterion not met whenever EC50 is at or above 9 µM, and Criterion met whenever it is below.

- substance: "FRKKWNRWALSR-NH2"
  answer.label: "Criterion met"

# input In plain terms, does RKKWNKWALSR-NH2 [- RKKWNKWALSR] come in under 9 µM for EC50?
# output Criterion not met

# input In plain terms, does FRKKWNKWFLSR-NH2 come in under 9 µM for EC50?
# output Criterion met

# input In plain terms, does WNKWALSR-NH2 [PAMP 13-20] come in under 9 µM for EC50?
# output Criterion not met

# input In plain terms, does FRRKWNKWALSR-NH2 come in under 9 µM for EC50?
# output Criterion met

# input In plain terms, does FRKKWNKAALSR-NH2 come in under 9 µM for EC50?
# output Criterion met

# input In plain terms, does FRKKWNKWAFSR-NH2 come in under 9 µM for EC50?
# output Criterion met

# input In plain terms, does ARLDVASEFRKKWNKWA [PAMP1-17] come in under 9 µM for EC50?
# output Criterion not met

# input In plain terms, does FAKKWNKWALSR-NH2 come in under 9 µM for EC50?
# output Criterion not met

# input In plain terms, does FRKKWDKWALSR-NH2 come in under 9 µM for EC50?
# output Criterion met

# input In plain terms, does DVASEFRKKWNKWALSR-NH2 [PAMP 4-20] come in under 9 µM for EC50?
# output Criterion not met
